Biological target: T1, human CD137-Fc (human, biotin-labeled)
T1 construct: if 90 already holds the Fc, drop the second piece; also called biotin-labeled human CD137 fused to human IgG1 Fc fragment; biotin-human CD137-Fc; not shown: human IgG1 Fc fragment
Test: bead ELISA on biotin-human CD137-Fc with 125 pmol/well free CD3e peptide as competitor;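 further: Streptavidin-coated magnetic beads in blocking buffer as the capture surface, well signal read as fluorescence 2 min after adding APS-5 substrate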
readout_type: ELISA signal
Provide a numeric answer; units are not to be included.

binder	ELISA signal
dBBDu199 (antibody, V domains shown, Human IgG1; light chain GLS3000 (kappa)) VH: QVQLVESGGGLVQPGRSLRLSCAASGFTFSNAWMHWVRQAPGKGLEWVAQIKDKQSGYNTYYAPSVKGRFTISRDDSKNSIYLQMNSLKTEDTAVYYCHYVHYASASTVLPAFGVDAWGQGTTVTVSS VL: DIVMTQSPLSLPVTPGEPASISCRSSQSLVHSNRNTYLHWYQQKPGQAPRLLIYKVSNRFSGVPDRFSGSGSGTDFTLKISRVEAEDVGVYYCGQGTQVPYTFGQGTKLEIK	2370

Here's the next entry for you.
Give its ELISA signal value. Item: dBBDu204 (antibody, V domains shown, Human IgG1; light chain GLS3000 (kappa)) VH: QVQLVESGGGLVQPGRSLRLSCAASGFTFSNAWMHWVRQAPGKGLEWVAQIKDRSNNYATYYAESVKGRFTISRDDSKNSIYLQMNSLKTEDTAVYYCHYVHYASASTVLPAFGVDAWGQGTTVTVSS VL: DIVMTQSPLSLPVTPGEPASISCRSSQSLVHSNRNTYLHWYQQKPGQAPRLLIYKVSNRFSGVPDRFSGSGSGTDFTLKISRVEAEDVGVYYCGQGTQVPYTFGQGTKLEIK
1880
